tested on: LAETG (Abz-LAETGK(Dnp)-CONH2); experiment: In vitro sortase kinetics HPLC assay, LAETG substrate; format: biochemical; conditions: 1 mM 2A (LAETG) substrate; read-out: Km, GGG
I'd be grateful if you could share measured Km for these entries.
Give the number first and the unit second.

molecule	test-readout	measured-value
2A.6B: 5mut + R99K A104H K138V D160K* K162R I182V (protein) QAKPQIPKDKSKVAGYIEIPDADIKEPVYPGPATREQLNKGVSFHEENESLDDQNISIAGHTFIDRPNYQFTNLKAAKVGSMVYFKVGNETRKYKMTSIRKVRPTAVEVLDEQKGKDKQLTLVTCDDYNEETGVWETRKIFVATEVK	Km	642 µM

Please report Km for every entry that follows.
1. 2A.6A: 5mut + A104H K138V K162R I182V (protein) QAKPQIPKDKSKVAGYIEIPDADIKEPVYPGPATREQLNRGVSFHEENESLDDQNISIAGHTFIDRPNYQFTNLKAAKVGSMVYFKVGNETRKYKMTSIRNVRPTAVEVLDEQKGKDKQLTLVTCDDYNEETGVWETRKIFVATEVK
2. eSrtA(2A-5): 5mut + R99H A104H K138I K162R I182V (protein) QAKPQIPKDKSKVAGYIEIPDADIKEPVYPGPATREQLNHGVSFHEENESLDDQNISIAGHTFIDRPNYQFTNLKAAKIGSMVYFKVGNETRKYKMTSIRNVRPTAVEVLDEQKGKDKQLTLVTCDDYNEETGVWETRKIFVATEVK
3. 2A.6C: 5mut + A104H K138P K152I D160K* K162R I182V (protein) QAKPQIPKDKSKVAGYIEIPDADIKEPVYPGPATREQLNRGVSFHEENESLDDQNISIAGHTFIDRPNYQFTNLKAAKPGSMVYFKVGNETRIYKMTSIRKVRPTAVEVLDEQKGKDKQLTLVTCDDYNEETGVWETRKIFVATEVK

Reply:
1: 1040 µM; 2: 2810 µM; 3: 642 µM

Where do these numbers come from? They come from patent US10202593B2.
